Tested on: MCF-7 breast tumour cell line
ASSAY_DETAILS: Tumor cell proliferation assay (CellTiter-Glo), MCF-7
Type: cell-based
MEASUREMENT_SETUP: Homo sapiens, MCF7, 72 h drug exposure, read-out: MCF-7 median IC50
READOUT_KIND: IC50 (nM)

[
  {
    "SMILES_INPUT": "CCOc1cc(C(=O)OC)nn2c(-c3ccccc3)c(-c3ccc(C4(N)CCC4)cc3)nc12",
    "TARGET": "MCF-7 breast tumour cell line",
    "UNIT_INFO": "nM",
    "IC50": 2100
  },
  {
    "SMILES_INPUT": "CN(C)C(=O)c1ccc2nc(-c3ccc(C4(N)CCC4)cc3)c(-c3ccccc3)n2n1",
    "TARGET": "MCF-7 breast tumour cell line",
    "UNIT_INFO": "nM",
    "IC50": 1500
  },
  {
    "SMILES_INPUT": "CCc1ccc2nc(-c3ccc(C4(N)CCC4)cc3)c(-c3ccccc3)n2n1",
    "TARGET": "MCF-7 breast tumour cell line",
    "UNIT_INFO": "nM",
    "IC50": 1700
  },
  {
    "SMILES_INPUT": "CCc1cc(CC)c2nc(-c3ccc(C4(N)CCC4)cc3)c(-c3ccccc3)n2n1",
    "TARGET": "MCF-7 breast tumour cell line",
    "UNIT_INFO": "nM",
    "IC50": 1800
  }
]

* * *

TARGET: His-tagged human recombinant kinase full-length Akt1 (Homo sapiens (Human), UniProt P31749)
Sequence (P31749 whole entry): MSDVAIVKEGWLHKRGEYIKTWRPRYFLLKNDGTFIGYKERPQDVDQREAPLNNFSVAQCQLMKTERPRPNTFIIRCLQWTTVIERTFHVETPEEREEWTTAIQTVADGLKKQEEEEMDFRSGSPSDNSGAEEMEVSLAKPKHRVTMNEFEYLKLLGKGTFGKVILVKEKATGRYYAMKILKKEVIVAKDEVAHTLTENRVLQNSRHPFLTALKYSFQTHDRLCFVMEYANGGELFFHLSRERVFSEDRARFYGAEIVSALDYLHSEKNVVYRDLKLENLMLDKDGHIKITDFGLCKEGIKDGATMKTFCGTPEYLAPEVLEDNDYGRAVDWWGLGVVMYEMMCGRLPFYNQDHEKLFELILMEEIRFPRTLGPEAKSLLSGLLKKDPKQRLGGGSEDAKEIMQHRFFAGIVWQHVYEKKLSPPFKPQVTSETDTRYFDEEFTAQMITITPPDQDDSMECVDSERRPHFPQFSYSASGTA
ASSAY_DETAILS: Akt1 kinase assay (Akt1 TR-FRET assay)
MEASUREMENT_SETUP: 10 μM ATP, 60 min at 22° C., read-out: Akt1 median IC50
pIC50: −log10 of the molar value.
READOUT_KIND: pIC50

[
  {
    "SMILES_INPUT": "NC1(c2ccc(-c3nc4ccc(C(=O)O)nn4c3-c3ccccc3)cc2)CCC1",
    "pIC50": 6.35
  },
  {
    "SMILES_INPUT": "COC(=O)c1nn2c(-c3ccccc3)c(-c3ccc(C4(N)CCC4)cc3)nc2c(C)c1C",
    "pIC50": 7.38
  }
]

(I) NC1(c2ccc(-c3nc4ccc(O)nn4c3-c3ccccc3)cc2)CCC1
(II) NC1(c2ccc(-c3nc4ccc(Cl)nn4c3-c3ccccc3)cc2)CCC1
(III) CCCCOc1cc(OCC)nn2c(-c3ccccc3)c(-c3ccc(C4(N)CCC4)cc3)nc12
(IV) COC(=O)CCc1ccnn2c(-c3ccccc3)c(-c3ccc(C4(N)CCC4)cc3)nc12
(V) COC(=O)c1cc(-c2ncc[nH]2)c2nc(-c3ccc(C4(N)CCC4)cc3)c(-c3ccccc3)n2n1
### Prompt Order the records, beginning with the lowest pIC50 and ending with the highest. Answer format: the labels, ordered as requested.
### Response I, IV, V, II, III
(I: 5.70, IV: 6.51, V: 6.96, II: 7.37, III: 8.00)

(A) CCOc1cc(OCC)c2nc(-c3ccc(C4(N)CCC4)cc3)c(-c3ccccc3)n2n1
(B) CS(=O)(=O)c1ccc2nc(-c3ccc(C4(N)CCC4)cc3)c(-c3ccccc3)n2n1
### Prompt Returns: the argument ( A or B ) having the larger pIC50. Reply with the label of the item you choose.
### Response A

* * *

Tested on: KPL-4 breast cancer cell line
ASSAY_DETAILS: Tumor cell proliferation assay (CellTiter-Glo), KPL-4
Assay type: cell-based
MEASUREMENT_SETUP: Homo sapiens, KPL4, 72 h drug exposure, read-out: KLP-4 median IC50
pIC50: −log10 of the molar value.
READOUT_KIND: pIC50

[
  {
    "SMILES_INPUT": "NC1(c2ccc(-c3nc4c(C5CC5)cc(Cl)nn4c3-c3ccccc3)cc2)CCC1",
    "pIC50": 5.72
  },
  {
    "SMILES_INPUT": "CCc1cc(-c2cc[nH]n2)c2nc(-c3ccc(C4(N)CCC4)cc3)c(-c3ccccc3)n2n1",
    "pIC50": 5.70
  },
  {
    "SMILES_INPUT": "COc1cc(-c2cc[nH]n2)c2nc(-c3ccc(C4(N)CCC4)cc3)c(-c3ccccc3)n2n1",
    "pIC50": 5.74
  },
  {
    "SMILES_INPUT": "CSc1ccc2nc(-c3ccc(C4(N)CCC4)cc3)c(-c3ccccc3)n2n1",
    "pIC50": 5.74
  }
]

* * *

System: KPL-4 breast cancer cell line
ASSAY_DETAILS: Tumor cell proliferation assay (CellTiter-Glo), KPL-4
Format: cell-based
MEASUREMENT_SETUP: Homo sapiens, KPL4, 72 h drug exposure, read-out: KLP-4 median IC50
pIC50: −log10 of the molar value.
READOUT_KIND: pIC50

Completed entries (count: 2):
[
  {
    "COMPOUND": "NC1(c2ccc(-c3nc4ccc(NC(=O)C(F)(F)F)nn4c3-c3ccccc3)cc2)CCC1 [Example 40]",
    "pIC50": "< 5.00"
  },
  {
    "COMPOUND": "CS(=O)(=O)Nc1ccc2nc(-c3ccc(C4(N)CCC4)cc3)c(-c3ccccc3)n2n1 [Example 45]",
    "pIC50": "< 5.00"
  }
]

### Prompt Please indicate pIC50 recorded for NC1(c2ccc(-c3nc4ccc(C(=O)O)nn4c3-c3ccccc3)cc2)CCC1 [Example 8]
### Response < 5.00

* * *

TARGET: His-tagged human recombinant kinase full-length Akt1 (Homo sapiens (Human))
ASSAY_DETAILS: Akt1 kinase assay (Akt1 TR-FRET assay)
MEASUREMENT_SETUP: 10 μM ATP, 60 min at 22° C., read-out: Akt1 median IC50
READOUT_KIND: IC50 (nM)

(P) COc1cc(OC)c2nc(-c3ccc(C4(N)CCC4)cc3)c(-c3ccccc3)n2n1
(Q) COc1ccnn2c(-c3ccccc3)c(-c3ccc(C4(N)CCC4)cc3)nc12
(R) Cc1c(Cl)nn2c(-c3ccccc3)c(-c3ccc(C4(N)CCC4)cc3)nc2c1C
### Prompt Sort the listed compounds above so the one with the largest IC50 comes first and the smallest comes last. Answer format: the labels, ordered as requested.
### Response Q, R, P
(Q: 130 nM, R: 44 nM, P: 3.9 nM)

Cited source: patent US9604989B2
